// reported IC50 per item
System: PC-14;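 note: cell viability assay measuring inhibition of PC-14 cell growth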
protocol_text: cells
Format: functional, cell-based, Homo sapiens
condition_summary: Homo sapiens, PC-14
Description: SANGER: Inhibition of human PC-14 cell growth in a cell viability assay.
Where a name gives a salt, the structure may show the parent alone.

molecule | unit_abbrev | comparator | IC50
CC(C)c1ccccc1Cc1cc(C(=O)Nc2ccc(S(=O)(=O)c3ccccc3C(C)(C)C)cc2)c(O)c(O)c1O | µM | = | 0.331
CC(C)CCN1c2nc(Nc3cc(F)c(O)c(F)c3)ncc2N(C)C(=O)C1C (stereo not given) | µM | > | 5
COC1=CC(c2cc3ccccc3[nH]2)=N/C1=C\c1[nH]c(C)cc1C [OBATOCLAX MESYLATE] | µM | = | 0.0525
O=C(O)c1ccc(-c2c[nH]c3ncc(-c4ccccc4)cc23)cc1C1CCCC1 | µM | > | 16
Cc1cc([N+](=O)[O-])ccc1NS(=O)(=O)c1cc(Cl)ccc1Cl | µM | = | 20
